Assign pIC50 to each entry below.
TEST DETAILS: Inhibition of refolded MDH reporter enzyme (unknown origin)
Design: species or system Homo sapiens
pIC50: −log10 of the molar value.

Given item Nc1ccc(C(=O)/C=C/c2ccccc2)cc1 , the value recorded as its pIC50 is < 4.20

So for O=C(/C=C/c1ccccc1)c1ccc(O)cc1 [4'-HYDROXYCHALCONE] , the logged pIC50 turned out to be < 4.20

Per the records, this molecule ( O=C(/C=C/c1cccc([N+](=O)[O-])c1)c1ccc(NC(=O)c2cccs2)cc1 ) has pIC50 equal to < 4.20

Kindly note the recorded pIC50 for O=C(/C=C/c1ccccc1)c1ccccc1 , which is < 4.20

Reported pIC50 ( COc1ccc(/C=C/C(=O)c2ccccc2)cc1 ) = < 4.20

Form field pIC50, entry O=C(/C=C/c1cccc([N+](=O)[O-])c1)c1ccc(NC(=O)c2ccccc2)cc1 : < 4.20

Notebook: O=C(/C=C/c1ccccc1)c1ccc(NC(=O)c2cccs2)cc1 , pIC50 read as < 4.20

# pIC50 (molecule: O=C(/C=C/c1ccc([N+](=O)[O-])cc1)c1ccc(O)c(O)c1 ) is < 4.20

// pIC50 lookup, molecule = CC(=O)Nc1ccc(C(=O)/C=C/c2ccco2)cc1 , result: < 4.20

According to the records, this molecule O=C(/C=C/c1cccc([N+](=O)[O-])c1)c1ccc(NC(=O)c2ccco2)cc1 displays pIC50 of < 4.20

molecule O=C(NCc1ccccc1)c1ccccc1 , pIC50 observed: < 4.20

molecule O=C(/C=C/c1ccccc1)c1ccc(NC(=O)c2ccccc2)cc1 , pIC50 observed: < 4.20

Just so you know, measured pIC50 for OC(/C=C/c1ccccc1)c1ccccc1 (stereo unspecified) came out at < 4.20

Please fill in: pIC50 reported for COc1ccc(C(=O)/C=C/c2ccccc2)cc1 = < 4.20

// field: pIC50; key: O=C(/C=C/c1ccco1)c1ccc(NC(=O)c2cccs2)cc1 ; value = < 4.20

pIC50 measured on Nc1ccc(C(=O)/C=C/c2ccco2)cc1 = 4.34

Reported pIC50 of O=C(/C=C/c1ccco1)c1ccc(NC(=O)c2ccccc2)cc1 : < 4.20

Per the record, O=C(/C=C/c1ccc(O)cc1)c1ccccc1 [4-HYDROXYCHALCONE] has pIC50 of < 4.20

Entry O=C(CCc1ccccc1)c1ccccc1 — recorded pIC50 = < 4.20

Memo: CC(=O)Nc1ccc(C(=O)/C=C/c2ccccc2)cc1 , reported pIC50: < 4.20

Item: CC(=O)Nc1ccc(C(=O)/C=C/c2cccc([N+](=O)[O-])c2)cc1 | pIC50: < 4.20

* * *

TEST DETAILS: Cytotoxicity against human FHs74Int cells assessed as reduction in cell viability incubated for 48 hrs by AlamarBlue-based assay
Assay type: toxicity
Field: CC50 at 48 h. Provide a value for each of the compounds that follow.
All answers are understood in µM, so give the number only.

Kindly note the recorded CC50 at 48 h for CC(=O)Nc1ccc(C(=O)/C=C/c2ccccc2)cc1 , which is 58

Lookup result for COc1ccc(/C=C/C(=O)c2ccccc2)cc1 ; measured CC50 at 48 h: 91

The compound O=C(/C=C/c1ccco1)c1ccc(NC(=O)c2cccs2)cc1 showed CC50 at 48 h equal to 68

CC50 at 48 h for O=C(/C=C/c1cccc([N+](=O)[O-])c1)c1ccc(NC(=O)c2ccco2)cc1 is 54
